Test system: RARb homodimer (NR concentration 270 nM)
assay_method_text: PBM binding z-score (relative to random genomic background probes); higher = stronger binding; sequences stand for … in GC…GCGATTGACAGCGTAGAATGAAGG
readout_label: PBM binding z-score

>>> reported("GCATATAGGTAATACAAGGTGAAAGTTCGATTGT")
1.57
>>> reported("GCTGCTAGGTCAGGTTGATCAGCTAACGGGTACG")
2.24
>>> reported("TCATATAGGTAATACAGGTGAAAGGCGGCATCTA")
0.722
>>> reported("ATCGAAAGGTAGTGAGGTGAGTATACAGAAAGGC")
0.406
>>> reported("ATCTCTAGGTAACAAGTTAAGTGAAAGAGAGGAC")
0.585
>>> reported("TATCCAGGGTCAAAGGCCAGAGTACGAATGTCGA")
3.6
>>> reported("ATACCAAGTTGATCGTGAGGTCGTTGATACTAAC")
1.39
>>> reported("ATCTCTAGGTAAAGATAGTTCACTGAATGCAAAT")
1.54
>>> reported("ACAAACAGGTGAGTGAAGGTAACTCAGCTGGACG")
0.000775
>>> reported("CTCGAAAGGTCGTGCTCACGTGAGTATACCAAAC")
2.82
>>> reported("AGAACGAGGGCAAGCTGAGTTGATAGCAGAGTAG")
1.06
>>> reported("CAAACTAGGCCACGAAAGGTCAAAGTCGAATGAC")
4.95
